- tested_system: recombinant mTOR (FLAG-tagged, residues 1362-2549) (Homo sapiens, UniProt P42345)
- Sequence (P42345 1362-2549): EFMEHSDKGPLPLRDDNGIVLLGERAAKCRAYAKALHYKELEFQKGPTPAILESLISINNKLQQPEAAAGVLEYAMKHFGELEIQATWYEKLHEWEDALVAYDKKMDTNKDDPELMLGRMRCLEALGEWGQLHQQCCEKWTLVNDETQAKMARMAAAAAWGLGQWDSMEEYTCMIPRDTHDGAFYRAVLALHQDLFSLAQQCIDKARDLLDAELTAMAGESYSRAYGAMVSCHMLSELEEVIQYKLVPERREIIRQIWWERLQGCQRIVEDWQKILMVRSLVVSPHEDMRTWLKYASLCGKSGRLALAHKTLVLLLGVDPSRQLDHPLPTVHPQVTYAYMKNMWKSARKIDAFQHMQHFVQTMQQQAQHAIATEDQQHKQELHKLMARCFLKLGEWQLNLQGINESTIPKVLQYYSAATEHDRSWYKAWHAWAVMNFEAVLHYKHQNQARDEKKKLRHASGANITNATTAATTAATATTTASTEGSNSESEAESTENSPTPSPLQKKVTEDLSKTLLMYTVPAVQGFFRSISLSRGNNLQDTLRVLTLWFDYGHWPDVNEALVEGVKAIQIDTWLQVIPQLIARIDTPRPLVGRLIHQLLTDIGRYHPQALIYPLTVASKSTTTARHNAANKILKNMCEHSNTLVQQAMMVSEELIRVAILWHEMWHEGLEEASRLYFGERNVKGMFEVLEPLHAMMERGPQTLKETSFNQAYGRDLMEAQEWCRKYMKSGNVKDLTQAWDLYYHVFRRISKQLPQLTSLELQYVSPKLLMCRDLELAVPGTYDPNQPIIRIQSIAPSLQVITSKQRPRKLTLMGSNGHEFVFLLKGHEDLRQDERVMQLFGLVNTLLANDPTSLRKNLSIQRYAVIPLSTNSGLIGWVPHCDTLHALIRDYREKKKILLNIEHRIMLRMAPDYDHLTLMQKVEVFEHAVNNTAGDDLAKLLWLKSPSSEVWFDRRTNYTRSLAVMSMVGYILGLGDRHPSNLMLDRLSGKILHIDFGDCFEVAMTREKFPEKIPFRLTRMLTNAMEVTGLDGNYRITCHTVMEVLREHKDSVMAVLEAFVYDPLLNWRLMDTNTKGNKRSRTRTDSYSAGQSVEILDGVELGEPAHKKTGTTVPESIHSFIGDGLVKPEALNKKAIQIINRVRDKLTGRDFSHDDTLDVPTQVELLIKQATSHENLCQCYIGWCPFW
- protocol_description: In vitro mTOR kinase assay (Test (a), AlphaScreen)
- particulars: ATP 20 μM, read-out: Test (a): IC50 versus mTOR kinase
reported_endpoint: log10 IC50 (log10 of the value in nM)
Hello, just confirming the data are log10 of IC50 with units of nM.

In [3]: df
Out[3]:
                                   compound  reported_endpoint  number
0  C[C@H]1COCCN1c1cc(CS(=O)(=O)CC(N)=O)nc(-c2ccc(NC(=O)NC3CC3)cc2)n1 [Example 43h]         log10 IC50    0.85
1  Cc1cc(NC(=O)Nc2ccc(-c3nc(N4CCOC[C@@H]4C)cc(C(C)(C)S(C)(=O)=O)n3)cc2)no1 [Example 24t]         log10 IC50    1.08
2  COCCNC(=O)Nc1ccc(-c2nc(CS(=O)(=O)C(C)C)cc(N3CCOCC3)n2)cc1 [Example 20p]         log10 IC50    2.96
3  Cc1cccc(C)c1NC(=O)Nc1ccc(-c2nc(CS(C)(=O)=O)cc(N3CCOC[C@@H]3C)n2)cc1 [Example 22b]         log10 IC50    3.20
4  CC(C)NC(=O)Nc1ccc(-c2nc(CS(C)(=O)=O)cc(N3CCOCC3)n2)cc1 [Example 7]         log10 IC50    2.23
5  C[C@H]1COCCN1c1cc(CS(C)(=O)=O)nc(-c2ccc(NC(=O)N3CCOCC3)cc2)n1 [Example 35d]         log10 IC50    3.51

input: Entry under review: CC(C)NC(=O)Nc1ncc(-c2nc(CS(C)(=O)=O)cc(N3CCOC[C@@H]3C)n2)s1 [Example 46a] . Reported log10 IC50?
output: 2.54

input: Entry under review: C[C@H]1COCCN1c1cc(CS(C)(=O)=O)nc(-c2ccc(NC(=O)N3CCC(O)CC3)cc2)n1 [Example 35e] . Reported log10 IC50?
output: 3.40

input: Entry under review: C[C@H]1COCCN1c1cc(CS(=O)(=O)c2ccccc2)nc(-c2ccc(NC(=O)NCCN(C)C)cc2)n1 [Example 20h] . Reported log10 IC50?
output: 2.64

input: Entry under review: CC(C)S(=O)(=O)Cc1cc(N2CCOC[C@@H]2C)nc(-c2ccc(NC(=O)N(C)C)cc2)n1 [Example 14] . Reported log10 IC50?
output: 2.62

input: Entry under review: CCNC(=O)Nc1ccc(-c2nc(CS(=O)(=O)c3ccccc3)cc(N3CCOC[C@@H]3C)n2)cc1 [Example 20f] . Reported log10 IC50?
output: 1.54

---

Overview of recorded IC50 for various compounds
- tested_system: recombinant mTOR (FLAG-tagged, residues 1362-2549) (Homo sapiens, UniProt P42345)
- protocol_description: In vitro mTOR kinase assay (Test (a), AlphaScreen)
- particulars: ATP 20 μM, read-out: Test (a): IC50 versus mTOR kinase
- Description: (a) In Vitro mTOR Kinase Assay Following expression in the mammalian HEK293 cell line, expressed protein was purified using the FLAG epitope tag using standard purification techniques. […] The resultant signals arising from laser light excitation at 680 nm were read using a Packard Envision instrument. […] mTOR enzyme inhibition for a given test compound was expressed as an IC50 value.
Answer with a number only, understood to be in nM.

In [3]: df
Out[3]:
                                   compound  reported_endpoint  number
0  CCOCCNC(=O)Nc1ccc(-c2nc(CS(C)(=O)=O)cc(N3CCOCC3)n2)cc1 [Example 45s]               IC50     300

input: Entry under review: C[C@H]1COCCN1c1cc(CS(C)(=O)=O)nc(-n2ccc(NC(=O)NC3CC3)n2)n1 [Example 24m] . Reported IC50?
output: 650

input: Entry under review: C[C@H]1COCCN1c1cc(CS(C)(=O)=O)nc(-c2ccc(NC(=O)NCc3ccncc3)cc2)n1 [Example 24e] . Reported IC50?
output: 810

input: Entry under review: `C[C@H]1COCCN1c1cc(CS(C)(=O)=O)nc(-n2ccc(NC(=O)Nc3ccccc3)n2)n1` . Reported IC50?
output: 1900
